- Tested on: NIH3T3
- assayInfo: Inhibition of TBHP-induced ferroptosis in mouse NIH/3T3 cells after 12 hrs by WST-8 assay
- Type: functional, cell-based
- condition: NIH3T3, 12 h
metric: pIC50
Would you please state pIC50, meaning minus log10 of the concentration in mol/L, as a bare number?

Look over these answered cases.
With NIH3T3 as the test system, CC(=O)N(O)CCCCCNC(=O)CCC(=O)N(O)CCCCCNC(=O)CCC(=O)N(O)CCCCCN showed pIC50 of 5.05

With NIH3T3 as the test system, CCOC(=O)c1ccc(NC2CCCCC2)c(N)c1 showed pIC50 of 6.66

Now look at this one.
With NIH3T3 as the test system, CC(C)N1C(=O)C(NCCCN(C)C)=C(c2cn(C)c3ccccc23)C1=O.Cl showed pIC50 of 5.74

* * *

- assayInfo: Aqueous solubility of compound in citrate-phosphate buffer at pH 7.0 after 30 mins by HPLC analysis
- Type: physicochemical
metric: solubility at 0.5 h (mM)
Numeric only. Scale: mM

Value of measured solubility at 0.5 h for the entry CN1C(=O)C(NCCN)=C(c2cn(C)c3ccccc23)C1=O.Cl : 71

* * *

- Tested on: HL-60
- assayInfo: Cytoprotection against human HL60 cells assessed as inhibition of H2O2-induced cell death pretreated for 1 hr followed by H2O2 stimulation measured after 3 hrs by p-iodonitrotetrazolium violet dye based LDH assay
- Format: functional
Define the label as YES when IC50 is strictly less than 800 nM and as NO in all remaining cases.

Reference set (3 entries):
[in] For this compound, is IC50 lower than 800 nM? CN1C(=O)C(NCCc2ccccc2)=C(c2cn(C)c3ccccc23)C1=O
[out] YES

[in] For this compound, is IC50 lower than 800 nM? CN1C(=O)C(NCc2ccc(Cl)cc2)=C(c2cn(C)c3ccccc23)C1=O
[out] YES

[in] For this compound, is IC50 lower than 800 nM? CN1C(=O)C(NCc2cccnc2)=C(c2cn(C)c3ccccc23)C1=O
[out] NO

---
[in] For this compound, is IC50 lower than 800 nM? CCCNC1=C(c2cn(C)c3ccccc23)C(=O)N(CCC)C1=O
[out] YES

[in] For this compound, is IC50 lower than 800 nM? C[C@@H](NC1=C(c2cn(C)c3ccccc23)C(=O)N(C)C1=O)c1ccccc1
[out] YES

[in] For this compound, is IC50 lower than 800 nM? CN1C(=O)C(NCc2ccco2)=C(c2cn(C)c3ccccc23)C1=O
[out] YES

[in] For this compound, is IC50 lower than 800 nM? CC(C)N1C(=O)C(NCCCN(C)C)=C(c2cn(C)c3ccccc23)C1=O.Cl
[out] YES

* * *

- Tested on: HL-60
- assayInfo: Cytoprotection against human HL60 cells assessed as inhibition of H2O2-induced cell death pretreated for 1 hr followed by H2O2 stimulation measured after 3 hrs by p-iodonitrotetrazolium violet dye based LDH assay
- Type: functional
Define the label as Condition met when IC50 is strictly less than 400 nM and as Condition not met in all remaining cases.

[in] For this molecule, is IC50 lower than 400 nM? COc1ccccc1CNC1=C(c2cn(C)c3ccccc23)C(=O)N(C)C1=O
[out] Condition not met

[in] For this molecule, is IC50 lower than 400 nM? CN(C)C1=C(c2cn(C)c3ccccc23)C(=O)N(C)C1=O
[out] Condition not met

[in] For this molecule, is IC50 lower than 400 nM? CN1C(=O)C(NC2CCCC2)=C(c2cn(C)c3ccccc23)C1=O
[out] Condition met

---
[in] For this molecule, is IC50 lower than 400 nM? CCCNC1=C(c2cn(C)c3ccccc23)C(=O)N(C(CC)CC)C1=O
[out] Condition not met

[in] For this molecule, is IC50 lower than 400 nM? CCCNC1=C(c2cn(C)c3ccccc23)C(=O)N(Cc2ccccc2)C1=O
[out] Condition not met

[in] For this molecule, is IC50 lower than 400 nM? COc1cccc(CNC2=C(c3cn(C)c4ccccc34)C(=O)N(C)C2=O)c1
[out] Condition not met

Where do the numbers come from? From ChEMBL document CHEMBL4304811.
